System: Aspergillus fumigatus
protocolNotes: Antimicrobial activity against Aspergillus fumigatus 7544 after 48 hrs by serial dilution method
Format: functional
experimentalConditions: Aspergillus fumigatus, 7544, 48 h
measuredParameter: MIC (µg/mL)

>>> measured("C[C@@H](N1CCn2nc(-c3cccc(Br)c3)nc2C1)[C@](O)(Cn1cncn1)c1ccc(F)cc1F")
16
>>> measured("C[C@@H](N1CCc2nc(-c3cccc(Br)c3)sc2C1)[C@](O)(Cn1cncn1)c1ccc(F)cc1F")
32
>>> measured("C[C@@H](N1CCn2nc(-c3ccccc3)nc2C1)[C@](O)(Cn1cncn1)c1ccc(F)cc1F")
32
>>> measured("CC(C)c1ccc(-c2nc3n(n2)CCN([C@H](C)[C@](O)(Cn2cncn2)c2ccc(F)cc2F)C3)cc1")
16
>>> measured("CC(C)c1cccc(-c2nc3n(n2)CCN([C@H](C)[C@](O)(Cn2cncn2)c2ccc(F)cc2F)C3)c1")
16
>>> measured("C[C@@H](N1CCn2ncnc2C1)[C@](O)(Cn1cncn1)c1ccc(F)cc1F")
16
>>> measured("C[C@@H](N1CCn2nc(-c3cccnc3)nc2C1)[C@](O)(Cn1cncn1)c1ccc(F)cc1F")
32
>>> measured("C[C@@H](N1CCc2nc(-c3ccco3)sc2C1)[C@](O)(Cn1cncn1)c1ccc(F)cc1F")
8
>>> measured("C[C@@H](N1CCn2cc(-c3ccc(C(F)(F)F)cc3)nc2C1)[C@](O)(Cn1cncn1)c1ccc(F)cc1F")
32
>>> measured("COc1cccc(-c2cn3c(n2)CN([C@H](C)[C@](O)(Cn2cncn2)c2ccc(F)cc2F)CC3)c1")
32
>>> measured("C[C@@H](N1CCc2nc(-c3cncc(C#N)c3)sc2C1)[C@](O)(Cn1cncn1)c1ccc(F)cc1F")
8
>>> measured("C[C@@H](c1ncncc1F)[C@](O)(Cn1cncn1)c1ccc(F)cc1F")
2
>>> measured("C[C@@H](N1CCn2nc(-c3ccc(C#N)nc3)nc2C1)[C@](O)(Cn1cncn1)c1ccc(F)cc1F")
1
>>> measured("C[C@@H](N1CCc2nc(-c3cccnc3)sc2C1)[C@](O)(Cn1cncn1)c1ccc(F)cc1F")
2
>>> measured("C[C@@H](N1CCc2nc(-c3ccc(F)cc3)sc2C1)[C@](O)(Cn1cncn1)c1ccc(F)cc1F")
16
>>> measured("C[C@@H](N1CCc2sc(-c3ccccc3)cc2C1)[C@](O)(Cn1cncn1)c1ccc(F)cc1F")
32
>>> measured("C[C@@H](N1CCn2nc(-c3cncnc3)nc2C1)[C@](O)(Cn1cncn1)c1ccc(F)cc1F")
32

====

# Lookup of reported MIC keyed by entry
System: Nakaseomyces glabratus
protocolNotes: Antimicrobial activity against Candida glabrata 537 after 24 hrs by serial dilution method
Assay type: functional
experimentalConditions: Nakaseomyces glabratus, 537, 24 h
measuredParameter: MIC (µg/mL)

>>> measured("C[C@@H](N1CCc2nc(-c3ccc(F)cc3)sc2C1)[C@](O)(Cn1cncn1)c1ccc(F)cc1F")
4
>>> measured("COc1ncc(-c2nc3c(s2)CN([C@H](C)[C@](O)(Cn2cncn2)c2ccc(F)cc2F)CC3)cn1")
0.25
>>> measured("C[C@@H](N1CCn2nc(-c3ccc(F)cc3)nc2C1)[C@](O)(Cn1cncn1)c1ccc(F)cc1F")
0.125
>>> measured("C[C@@H](N1CCc2nc(-c3cccc(C#N)c3)sc2C1)[C@](O)(Cn1cncn1)c1ccc(F)cc1F")
2
>>> measured("C[C@@H](N1CCc2sc(-c3cccc(F)c3)cc2C1)[C@](O)(Cn1cncn1)c1ccc(F)cc1F")
1
>>> measured("Cc1nnn2c1CN([C@H](C)[C@](O)(Cn1cncn1)c1ccc(F)cc1F)CC2")
0.5
>>> measured("C[C@@H](N1CCn2nc(-c3ccncc3)nc2C1)[C@](O)(Cn1cncn1)c1ccc(F)cc1F")
0.125
>>> measured("C[C@@H](N1CCc2nc(-c3cncc(F)c3)sc2C1)[C@](O)(Cn1cncn1)c1ccc(F)cc1F")
0.125

====

Tested on: Candida parapsilosis
protocolNotes: Antimicrobial activity against Candida parapsilosis 22019 after 24 hrs by serial dilution method
Type: functional
experimentalConditions: Lodderomyces parapsilosis, 22019, 24 h
# Lookup of reported log10 MIC keyed by entry
measuredParameter: log10 MIC (log10 of the value in µg/mL)

>>> measured("C[C@@H](N1CCn2cc(-c3ccccc3)nc2C1)[C@](O)(Cn1cncn1)c1ccc(F)cc1F")
-1.20
>>> measured("C[C@@H](N1CCc2nc(-c3ccc(Br)cc3)sc2C1)[C@](O)(Cn1cncn1)c1ccc(F)cc1F")
0.60
>>> measured("C[C@@H](N1CCn2nc(-c3ccc(F)cc3F)nc2C1)[C@](O)(Cn1cncn1)c1ccc(F)cc1F")
-0.60
>>> measured("C[C@@H](N1CCc2sc(-c3cccc(C(F)(F)F)c3)cc2C1)[C@](O)(Cn1cncn1)c1ccc(F)cc1F")
0.30
>>> measured("C[C@@H](N1CCn2nc(-c3ccc(F)cc3)nc2C1)[C@](O)(Cn1cncn1)c1ccc(F)cc1F")
-0.90
>>> measured("C[C@@H](N1CCn2cc(C(C)(C)C)nc2C1)[C@](O)(Cn1cncn1)c1ccc(F)cc1F")
-0.60
>>> measured("C[C@@H](N1CCc2sc(-c3ccc(C#N)nc3)cc2C1)[C@](O)(Cn1cncn1)c1ccc(F)cc1F")
0.30
>>> measured("C[C@@H](N1CCc2nc(-c3cccc(C#N)c3)sc2C1)[C@](O)(Cn1cncn1)c1ccc(F)cc1F")
0.30

====

protocolNotes: AUC (0 to infinity) in Sprague-Dawley rat at 3 mg/kg, iv
Assay type: ADME, organism-based
Set-up: time infinity, dose 3 mg/kg, route intravenous
experimentalConditions: plasma
measuredParameter: AUC(0-inf) (ng·h/mL)

>>> measured("C[C@@H](N1CCn2nc(-c3ccc(C#N)nc3)nc2C1)[C@](O)(Cn1cncn1)c1ccc(F)cc1F")
2240

====

# Lookup of reported MIC keyed by entry
Test system: Candida parapsilosis
protocolNotes: Antimicrobial activity against Candida parapsilosis 22019 after 24 hrs by serial dilution method
Format: functional
experimentalConditions: Lodderomyces parapsilosis, 22019, 24 h
measuredParameter: MIC (µg/mL)

>>> measured("C[C@@H](N1CCc2nc(-c3cccnc3)sc2C1)[C@](O)(Cn1cncn1)c1ccc(F)cc1F")
0.125
>>> measured("C[C@@H](N1CCn2nnc(Br)c2C1)[C@](O)(Cn1cncn1)c1ccc(F)cc1F")
0.125
>>> measured("C[C@@H](N1CCn2cc(-c3ccc(F)cc3)nc2C1)[C@](O)(Cn1cncn1)c1ccc(F)cc1F")
0.125
>>> measured("C[C@@H](N1CCn2nc(-c3cccc(C#N)c3)nc2C1)[C@](O)(Cn1cncn1)c1ccc(F)cc1F")
0.125
>>> measured("C[C@@H](N1CCn2nc(-c3ccc(Br)cc3)nc2C1)[C@](O)(Cn1cncn1)c1ccc(F)cc1F")
0.5
>>> measured("C[C@@H](N1CCn2ncnc2C1)[C@](O)(Cn1cncn1)c1ccc(F)cc1F")
0.25
>>> measured("C[C@@H](N1CCc2sc(-c3cccc(Cl)c3)cc2C1)[C@](O)(Cn1cncn1)c1ccc(F)cc1F")
4
>>> measured("C[C@@H](N1CCn2nc(-c3cccnc3)nc2C1)[C@](O)(Cn1cncn1)c1ccc(F)cc1F")
0.0312
>>> measured("C[C@@H](N1CCc2sc(-c3ccccc3)cc2C1)[C@](O)(Cn1cncn1)c1ccc(F)cc1F")
8

====

# Lookup of reported MIC keyed by entry
Test system: Nakaseomyces glabratus
protocolNotes: Antimicrobial activity against Candida glabrata 537 after 24 hrs by serial dilution method
Type: functional
experimentalConditions: Nakaseomyces glabratus, 537, 24 h
measuredParameter: MIC (µg/mL)

>>> measured("C[C@@H](N1CCc2cc(-c3ccncc3)sc2C1)[C@](O)(Cn1cncn1)c1ccc(F)cc1F")
2
>>> measured("C[C@@H](N1CCc2nc(-c3ccc(F)nc3)sc2C1)[C@](O)(Cn1cncn1)c1ccc(F)cc1F")
0.125
>>> measured("C[C@@H](N1CCn2cc(-c3ccccc3)nc2C1)[C@](O)(Cn1cncn1)c1ccc(F)cc1F")
0.0312
>>> measured("C[C@@H](N1CCn2nnc(Cl)c2C1)[C@](O)(Cn1cncn1)c1ccc(F)cc1F")
0.25
>>> measured("C[C@@H](N1CCn2cc(-c3ccc(F)cc3)nc2C1)[C@](O)(Cn1cncn1)c1ccc(F)cc1F")
0.125
>>> measured("C[C@@H](N1CCc2nc(-c3ccc(C#N)nc3)sc2C1)[C@](O)(Cn1cncn1)c1ccc(F)cc1F")
0.5
>>> measured("OC(Cn1cncn1)(Cn1cncn1)c1ccc(F)cc1F")
0.25
>>> measured("C[C@@H](N1CCc2nc(-c3cccc(Br)c3)sc2C1)[C@](O)(Cn1cncn1)c1ccc(F)cc1F")
8
>>> measured("C[C@@H](N1CCc2nc(-c3ccccc3)sc2C1)[C@](O)(Cn1cncn1)c1ccc(F)cc1F")
0.5
>>> measured("C[C@@H](N1CCc2sc(-c3ccc(C(F)(F)F)cc3)cc2C1)[C@](O)(Cn1cncn1)c1ccc(F)cc1F")
16
>>> measured("Cc1ccc(-c2nc3n(n2)CCN([C@H](C)[C@](O)(Cn2cncn2)c2ccc(F)cc2F)C3)cc1")
0.125
>>> measured("Cc1ccc(-c2cn3c(n2)CN([C@H](C)[C@](O)(Cn2cncn2)c2ccc(F)cc2F)CC3)cc1")
0.125
